Every entry's value here was drawn from ChEMBL document CHEMBL3425433.

The entries below are paired with their reported log10 IC50.
Target: NAD-dependent protein deacetylase sirtuin-1 (Homo sapiens, UniProt Q96EB6)
Sequence (Q96EB6 whole entry): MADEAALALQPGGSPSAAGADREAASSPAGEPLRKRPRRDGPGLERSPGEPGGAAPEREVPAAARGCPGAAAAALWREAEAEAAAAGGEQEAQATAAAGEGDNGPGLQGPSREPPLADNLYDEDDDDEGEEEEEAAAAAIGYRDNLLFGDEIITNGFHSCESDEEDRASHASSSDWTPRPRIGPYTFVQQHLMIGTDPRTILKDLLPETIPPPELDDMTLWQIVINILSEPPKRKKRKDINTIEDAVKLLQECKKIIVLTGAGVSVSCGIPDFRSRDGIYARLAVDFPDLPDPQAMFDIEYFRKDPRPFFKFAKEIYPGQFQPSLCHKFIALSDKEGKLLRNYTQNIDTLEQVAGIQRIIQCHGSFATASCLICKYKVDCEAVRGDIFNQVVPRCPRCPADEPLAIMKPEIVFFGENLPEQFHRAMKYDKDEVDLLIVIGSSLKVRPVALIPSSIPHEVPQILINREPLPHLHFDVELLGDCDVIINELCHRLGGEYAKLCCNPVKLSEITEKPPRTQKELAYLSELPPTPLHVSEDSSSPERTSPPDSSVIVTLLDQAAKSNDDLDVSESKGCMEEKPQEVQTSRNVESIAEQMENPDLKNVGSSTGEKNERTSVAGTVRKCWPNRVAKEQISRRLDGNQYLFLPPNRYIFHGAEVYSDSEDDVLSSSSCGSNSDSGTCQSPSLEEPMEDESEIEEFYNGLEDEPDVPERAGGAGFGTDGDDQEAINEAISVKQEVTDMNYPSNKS
Assay: Inhibition of His-tagged human recombinant SIRT1 expressed in Escherichia coli using Cbz-Lys(Ac)-AMC as substrate by fluorescence assay
Answers are given as log10 of IC50 in nM.

- compound: "NC(=O)C1CCCc2c(-c3ccc(Br)cc3)n[nH]c21 (racemic)"
  log10 IC50: 3.28
- compound: "Cn1c(-c2n[nH]c3c2CCCC3C(N)=O)cc2ccccc21 (racemic)"
  log10 IC50: 3.43
- compound: "Cc1ccc(-c2n[nH]c3c2CCCC3C(N)=O)cc1 (racemic)"
  log10 IC50: 3.79
- compound: "NC(=O)C1CCCc2c(-c3cc4ccccc4s3)n[nH]c21 (racemic)"
  log10 IC50: 3.23
- compound: "NC(=O)C1CCCc2c(-c3cc(Br)cs3)n[nH]c21 (racemic)"
  log10 IC50: 4.04

Please give the measured log10 IC50 for this compound: NC(=O)C1CCCc2c(-c3ccc(Cl)cc3)n[nH]c21 (racemic)
3.00

Please give the measured log10 IC50 for this compound: CC1(C)Cc2c(-c3ccc(Cl)cc3)n[nH]c2C(C(N)=O)C1 (racemic)
2.90

###

Target: UniProt:Q8IXJ6
Sequence (whole entry): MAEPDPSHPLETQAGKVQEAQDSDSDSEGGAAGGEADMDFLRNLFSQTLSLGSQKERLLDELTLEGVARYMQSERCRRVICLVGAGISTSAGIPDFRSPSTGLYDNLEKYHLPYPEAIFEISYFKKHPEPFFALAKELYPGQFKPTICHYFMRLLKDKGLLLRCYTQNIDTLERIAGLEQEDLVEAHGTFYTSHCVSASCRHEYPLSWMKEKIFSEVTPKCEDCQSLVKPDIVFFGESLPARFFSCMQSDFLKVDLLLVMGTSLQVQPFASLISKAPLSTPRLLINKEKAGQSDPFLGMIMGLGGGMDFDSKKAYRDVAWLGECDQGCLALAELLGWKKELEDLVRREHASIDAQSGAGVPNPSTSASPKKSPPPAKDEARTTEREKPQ
Assay: Inhibition of His-tagged human recombinant SIRT2 expressed in Escherichia coli at 20 uM using Cbz-Lys(Ac)-AMC as substrate by fluorescence assay
The entries below are paired with their reported inhibition.

- compound: "NC(=O)C1CCCc2c(-c3ccc(Br)cc3)n[nH]c21 (racemic)"
  target_entity: "UniProt:Q8IXJ6"
  test_value: "47%"
- compound: "NC(=O)C1CC(c2ccccc2)Cc2c(-c3ccc(Cl)cc3)n[nH]c21 (mixture of isomers)"
  target_entity: "UniProt:Q8IXJ6"
  test_value: "62%"
- compound: "CC1(C)Cc2c(-c3ccc(Cl)c(Cl)c3)n[nH]c2C(C(N)=O)C1 (racemic)"
  target_entity: "UniProt:Q8IXJ6"
  test_value: "28%"
- compound: "NC(=O)C1CC2(Cc3c(-c4ccc(Cl)cc4)n[nH]c31)OCCO2 (racemic)"
  target_entity: "UniProt:Q8IXJ6"
  test_value: "< 20%"
- compound: "CC1(C)Cc2c(-c3ccc(Br)cc3)n[nH]c2C(C(N)=O)C1 (racemic)"
  target_entity: "UniProt:Q8IXJ6"
  test_value: "42%"

Please give the measured inhibition for this compound: NC(=O)C1CCCc2c(-c3cccc(Cl)c3)n[nH]c21 (racemic)
< 20%

Please give the measured inhibition for this compound: NC(=O)C1CCCCCc2c(-c3ccc(Cl)cc3)n[nH]c21 (racemic)
22%

Please give the measured inhibition for this compound: Cn1cc(-c2n[nH]c3c2CCCC3C(N)=O)c2ccccc21 (racemic)
< 20%

Please give the measured inhibition for this compound: NC(=O)C1CCCc2c(-c3cc4ccccc4[nH]3)n[nH]c21 (racemic)
43%

###

Target: UniProt:Q13547
Sequence (Q13547 whole entry): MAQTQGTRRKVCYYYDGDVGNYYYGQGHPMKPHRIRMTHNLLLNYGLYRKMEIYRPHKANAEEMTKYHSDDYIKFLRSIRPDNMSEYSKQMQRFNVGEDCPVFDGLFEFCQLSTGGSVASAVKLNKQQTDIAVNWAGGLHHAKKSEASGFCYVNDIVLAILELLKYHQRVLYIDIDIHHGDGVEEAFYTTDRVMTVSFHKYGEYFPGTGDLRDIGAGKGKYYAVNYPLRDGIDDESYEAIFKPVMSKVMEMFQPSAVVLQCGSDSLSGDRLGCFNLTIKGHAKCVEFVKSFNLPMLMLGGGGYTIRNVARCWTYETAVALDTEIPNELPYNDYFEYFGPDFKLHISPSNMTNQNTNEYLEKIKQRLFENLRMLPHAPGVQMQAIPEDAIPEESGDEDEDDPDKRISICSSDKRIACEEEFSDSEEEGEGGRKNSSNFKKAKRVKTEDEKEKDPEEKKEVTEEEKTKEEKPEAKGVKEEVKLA
Test: Inhibition of HDAC1 (unknown origin)
The source made the active and inactive calls. The rule behind the calls is not given here.
metric_name: inhibition

Answered examples (6):
- molecule: "Cn1c(-c2n[nH]c3c2CCCC3C(N)=O)cc2ccccc21 (racemic)"
  target_entity: "UniProt:Q13547"
  metric_name: "inhibition"
  test_value: "inactive"
- molecule: "NC(=O)C1CCCc2c(-c3cc(Br)cs3)n[nH]c21 (racemic)"
  target_entity: "UniProt:Q13547"
  metric_name: "inhibition"
  test_value: "inactive"
- molecule: "NC(=O)C1CC(c2ccccc2)Cc2c(-c3ccc(Cl)cc3)n[nH]c21 (mixture of isomers)"
  target_entity: "UniProt:Q13547"
  metric_name: "inhibition"
  test_value: "inactive"
- molecule: "NC(=O)C1CCCc2c(-c3ccc(Cl)cc3Cl)n[nH]c21 (racemic)"
  target_entity: "UniProt:Q13547"
  metric_name: "inhibition"
  test_value: "inactive"
- molecule: "COc1ccc(-c2n[nH]c3c2CCCC3C(N)=O)cc1 (racemic)"
  target_entity: "UniProt:Q13547"
  metric_name: "inhibition"
  test_value: "inactive"
- molecule: "NC(=O)C1CCCc2c(-c3cc4cc(Br)ccc4s3)n[nH]c21 (racemic)"
  target_entity: "UniProt:Q13547"
  metric_name: "inhibition"
  test_value: "inactive"

Please give the measured inhibition for this molecule: NC(=O)C1CCCc2c(-c3cccs3)n[nH]c21 (racemic)
inactive

Please give the measured inhibition for this molecule: Cn1c(-c2n[nH]c3c2CC(C)(C)CC3C(N)=O)cc2ccccc21 (racemic)
inactive

Please give the measured inhibition for this molecule: NC(=O)C1CCCc2c(-c3ccccc3)n[nH]c21 (racemic)
inactive

Please give the measured inhibition for this molecule: Cn1cc(-c2n[nH]c3c2CCCC3C(N)=O)c2ccccc21 (racemic)
inactive

###

Target: Histone deacetylase 5 (Homo sapiens) (UniProt Q9UQL6)
Sequence (Q9UQL6 whole entry): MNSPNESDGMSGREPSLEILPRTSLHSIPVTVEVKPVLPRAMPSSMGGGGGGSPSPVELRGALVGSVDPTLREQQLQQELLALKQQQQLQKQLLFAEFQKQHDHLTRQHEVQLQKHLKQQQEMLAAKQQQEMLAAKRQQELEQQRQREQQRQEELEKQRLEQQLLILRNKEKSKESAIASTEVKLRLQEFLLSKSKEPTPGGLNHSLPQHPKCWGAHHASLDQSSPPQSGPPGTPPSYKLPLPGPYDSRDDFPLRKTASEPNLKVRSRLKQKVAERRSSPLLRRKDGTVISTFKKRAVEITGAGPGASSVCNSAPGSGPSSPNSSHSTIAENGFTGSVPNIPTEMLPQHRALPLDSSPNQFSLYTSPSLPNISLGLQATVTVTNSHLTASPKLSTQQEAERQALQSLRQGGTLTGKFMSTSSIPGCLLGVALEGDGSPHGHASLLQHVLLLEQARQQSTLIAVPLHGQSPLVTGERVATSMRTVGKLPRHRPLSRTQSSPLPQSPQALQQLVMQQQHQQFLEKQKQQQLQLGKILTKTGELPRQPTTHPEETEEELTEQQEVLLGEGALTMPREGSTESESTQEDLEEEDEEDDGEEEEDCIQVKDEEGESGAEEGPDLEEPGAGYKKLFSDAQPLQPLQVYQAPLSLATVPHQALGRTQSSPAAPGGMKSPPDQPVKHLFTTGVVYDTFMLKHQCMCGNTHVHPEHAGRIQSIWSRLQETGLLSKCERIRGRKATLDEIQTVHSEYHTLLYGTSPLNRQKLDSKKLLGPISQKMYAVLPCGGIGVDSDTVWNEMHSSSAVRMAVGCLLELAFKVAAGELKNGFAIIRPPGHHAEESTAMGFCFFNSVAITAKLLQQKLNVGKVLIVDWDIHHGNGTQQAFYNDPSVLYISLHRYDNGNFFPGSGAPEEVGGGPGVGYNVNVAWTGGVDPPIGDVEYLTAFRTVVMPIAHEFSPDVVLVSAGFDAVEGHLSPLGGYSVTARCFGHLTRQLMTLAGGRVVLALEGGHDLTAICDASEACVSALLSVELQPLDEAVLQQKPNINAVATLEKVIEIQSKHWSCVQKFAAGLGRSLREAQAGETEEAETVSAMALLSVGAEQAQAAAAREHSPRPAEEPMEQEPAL
Test: Inhibition of HDAC5 (unknown origin)
Active and inactive are the calls of the source. No cut-off for these calls is given here.
metric_name: inhibition

Answered examples (8):
- compound: "NC(=O)C1CCCc2c(-c3cc4cc(Br)ccc4s3)n[nH]c21 (racemic)"
  target_entity: "Histone deacetylase 5 (Homo sapiens) (UniProt Q9UQL6)"
  inhibition: "inactive"
- compound: "NC(=O)C1CCCc2c(-c3ccccc3Cl)n[nH]c21 (racemic)"
  target_entity: "Histone deacetylase 5 (Homo sapiens) (UniProt Q9UQL6)"
  inhibition: "inactive"
- compound: "CC1(C)Cc2c(-c3ccc(Cl)cc3)n[nH]c2C(C(N)=O)C1 (racemic)"
  target_entity: "Histone deacetylase 5 (Homo sapiens) (UniProt Q9UQL6)"
  inhibition: "inactive"
- compound: "NC(=O)C1CCCc2c(-c3ccccc3)n[nH]c21 (racemic)"
  target_entity: "Histone deacetylase 5 (Homo sapiens) (UniProt Q9UQL6)"
  inhibition: "inactive"
- compound: "Cn1c(-c2n[nH]c3c2CC(C)(C)CC3C(N)=O)cc2ccccc21 (racemic)"
  target_entity: "Histone deacetylase 5 (Homo sapiens) (UniProt Q9UQL6)"
  inhibition: "inactive"
- compound: "CC1(C)Cc2c(-c3ccc(Br)cc3)n[nH]c2C(C(N)=O)C1 (racemic)"
  target_entity: "Histone deacetylase 5 (Homo sapiens) (UniProt Q9UQL6)"
  inhibition: "inactive"
- compound: "CC1(C)CCC(C(N)=O)c2[nH]nc(-c3ccc(Cl)cc3)c21 (racemic)"
  target_entity: "Histone deacetylase 5 (Homo sapiens) (UniProt Q9UQL6)"
  inhibition: "inactive"
- compound: "Cn1c(-c2n[nH]c3c2CCCC3C(N)=O)cc2ccccc21 (racemic)"
  target_entity: "Histone deacetylase 5 (Homo sapiens) (UniProt Q9UQL6)"
  inhibition: "inactive"

Please give the measured inhibition for this compound: NC(=O)C1CCCc2c(-c3ccc(C(F)(F)F)cc3)n[nH]c21 (racemic)
inactive

Please give the measured inhibition for this compound: NC(=O)C1CCCCCc2c(-c3ccc(Cl)cc3)n[nH]c21 (racemic)
inactive

###

Test: Clearance in rat
Type: ADME, organism-based
Conditions: in vivo
metric_name: clearance
Express your answer as a number followed by its unit.

- compound: "NC(=O)C1CCCc2c(-c3ccc(Cl)cc3)n[nH]c21 (racemic)"
  clearance: "30 mL/min/kg"

Proceeding to the next compound to report its clearance.
Please give the measured clearance for this compound: CC1(C)Cc2c(-c3ccc(Cl)cc3)n[nH]c2C(C(N)=O)C1 (racemic)
5 mL/min/kg

###

Target: NAD-dependent protein deacetylase sirtuin-2 (Homo sapiens) (UniProt Q8IXJ6)
Sequence (whole entry): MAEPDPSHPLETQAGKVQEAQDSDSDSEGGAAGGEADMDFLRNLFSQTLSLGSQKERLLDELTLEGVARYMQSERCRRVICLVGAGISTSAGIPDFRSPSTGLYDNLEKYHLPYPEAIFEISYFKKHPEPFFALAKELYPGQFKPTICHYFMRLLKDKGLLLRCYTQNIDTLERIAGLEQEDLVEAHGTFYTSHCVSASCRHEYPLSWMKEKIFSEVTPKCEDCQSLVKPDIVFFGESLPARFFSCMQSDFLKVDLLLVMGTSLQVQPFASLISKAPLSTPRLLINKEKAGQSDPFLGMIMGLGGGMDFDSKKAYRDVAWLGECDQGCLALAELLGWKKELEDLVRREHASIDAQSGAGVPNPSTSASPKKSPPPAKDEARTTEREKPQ
Experiment: Inhibition of His-tagged human recombinant SIRT2 expressed in Escherichia coli at 20 uM using Cbz-Lys(Ac)-AMC as substrate by fluorescence assay
The entries below are paired with their reported inhibition.
Quick reminder: number only, in %, skip the unit.

Answered examples (3):
- molecule: "NC(=O)C1Cc2ccccc2Cc2c(-c3ccc(Cl)cc3)n[nH]c21 (racemic)"
  inhibition [%]: 50
- molecule: "NC(=O)C1CCCc2c(-c3csc4ccccc34)n[nH]c21 (racemic)"
  inhibition [%]: 44
- molecule: "NC(=O)C1CCCc2c(-c3ccc(Cl)cc3)n[nH]c21 (racemic)"
  inhibition [%]: 43

Proceeding to the next molecule to report its inhibition.
Lab request: please report inhibition under test system NAD-dependent protein deacetylase sirtuin-2 (Homo sapiens) (UniProt Q8IXJ6) for Cn1c(-c2n[nH]c3c2CCCC3C(N)=O)cc2cc(Cl)ccc21 (racemic)
51
